Numbers sourced from ChEMBL document CHEMBL5137093.

Test: Tmax in Sprague-Dawley rat at 3 ml/kg,po measured upto 24 hrs by UPLC-MS/MS analysis
Type: ADME
Conditions: Sprague-Dawley, in vivo, read-out: Tmax
Kindly return 1 if reported Tmax is no lower than 20 min; return 0 if it is lower.

Here's what some known entries look like.
# Molecule, Group
data = [
    ("COC(=O)N[C@H](C(=O)N[C@@H](Cc1ccccc1)[C@H](CN(Cc1ccc(-c2ccccn2)cc1)NC(=O)[C@@H](NC(=O)OC)C(C)(C)C)OC(=O)OC(OC(=O)C[C@H](N)Cc1cc(F)c(F)cc1F)C(C)C)C(C)(C)C (stereo in doubt; 3ac)", 1),
    ("CCC(C)C(OC(=O)O[C@@H](CN(Cc1ccc(-c2ccccn2)cc1)NC(=O)[C@@H](NC(=O)OC)C(C)(C)C)[C@H](Cc1ccccc1)NC(=O)[C@@H](NC(=O)OC)C(C)(C)C)OC(=O)[C@@H](N)C(C)C (mixture of isomers)", 0),
    ("COC(=O)N[C@H](C(=O)N[C@@H](Cc1ccccc1)[C@H](CN(Cc1ccc(-c2ccccn2)cc1)NC(=O)[C@@H](NC(=O)OC)C(C)(C)C)OC(=O)OC(OC(=O)C1(N)CC1)C(C)C)C(C)(C)C (stereo in doubt; 3x)", 0),
    ("COC(=O)N[C@H](C(=O)N[C@@H](Cc1ccccc1)[C@H](CN(Cc1ccc(-c2ccccn2)cc1)NC(=O)[C@@H](NC(=O)OC)C(C)(C)C)OC(=O)OC(OC(=O)[C@H](C(C)C)N(C)C)C(C)C)C(C)(C)C (stereo in doubt; 5g)", 1),
    ("COC(=O)N[C@H](C(=O)N[C@@H](Cc1ccccc1)[C@H](CN(Cc1ccc(-c2ccccn2)cc1)NC(=O)[C@@H](NC(=O)OC)C(C)(C)C)OC(=O)OC(OC(=O)[C@@H](N)C(C)C)C(C)(C)C)C(C)(C)C (mixture of isomers)", 1),
]

Challenge: Determine whether this molecule has Tmax no lower than 20 min: COC(=O)N[C@H](C(=O)N[C@@H](Cc1ccccc1)[C@H](CN(Cc1ccc(-c2ccccn2)cc1)NC(=O)[C@@H](NC(=O)OC)C(C)(C)C)OC(=O)OC(OC(=O)[C@H](N)C(C)C)C(C)C)C(C)(C)C (stereo in doubt; 5i)
Response given: 1

Challenge: Param item: COC(=O)N[C@H](C(=O)N[C@@H](Cc1ccccc1)[C@H](CN(Cc1ccc(-c2ccccn2)cc1)NC(=O)[C@@H](NC(=O)OC)C(C)(C)C)OC(=O)OC(OC(=O)CCN)C(C)C)C(C)(C)C (stereo in doubt; 3z)
Response given: 1

Challenge: Param item: COC(=O)N[C@H](C(=O)N[C@@H](Cc1ccccc1)[C@H](CN(Cc1ccc(-c2ccccn2)cc1)NC(=O)[C@@H](NC(=O)OC)C(C)(C)C)OC(=O)OC(OC(=O)[C@@H](NC(=O)[C@H](N)C(C)C)C(C)C)C(C)C)C(C)(C)C (stereo in doubt; 6h)
Response given: 1

* * *

half-life: recorded values
Experiment: Half life in Sprague-Dawley rat at 1 ml/kg,iv measured upto 24 hrs by UPLC-MS/MS analysis
Format: ADME
Details: in vivo
Express the result in h but write the number alone.

Below: 2 molecules and their reported half-life.
# Molecule, Endpoint Label, Readout Units, Measured Number
data = [
    ("COC(=O)N[C@H](C(=O)N[C@@H](Cc1ccccc1)[C@H](CN(Cc1ccc(-c2ccccn2)cc1)NC(=O)[C@@H](NC(=O)OC)C(C)(C)C)OC(=O)OC(OC(=O)[C@H](N)C(C)C)C(C)C)C(C)(C)C (stereo in doubt; 5j)", "half-life", "h", 4),
    ("COC(=O)N[C@H](C(=O)N[C@@H](Cc1ccccc1)[C@H](CN(Cc1ccc(-c2ccccn2)cc1)NC(=O)[C@@H](NC(=O)OC)C(C)(C)C)OC(=O)OC(OC(=O)[C@@H](N)C(C)C)C(C)C)C(C)(C)C (stereo in doubt; 3s)", "half-life", "h", 6),
]

With those in mind, consider the next molecule.
Challenge: Entry COC(=O)N[C@H](C(=O)N[C@@H](Cc1ccccc1)[C@H](CN(Cc1ccc(-c2ccccn2)cc1)NC(=O)[C@@H](NC(=O)OC)C(C)(C)C)OC(=O)OC(OC(=O)[C@@H](NC(=O)[C@H](N)C(C)C)C(C)C)C(C)C)C(C)(C)C (stereo in doubt; 6h) : reported half-life = ?
Response given: 7
